Study system: 5α-reductase
Test name: Inhibitory activity on 5α-reductase in vitro (rat prostate enzyme, [4-C14]-testosterone conversion to dihydrotestosterone)
Condition context: male rat prostate enzyme; [4-C14]-testosterone 1.5 n mol, NADPH; 60 mins at 37° C.; pH 7.4 buffer
Readout: IC50 (nM)
Use nM as the unit, but write only the number.

{"Molecule": "C/C(=C\\c1ccc(CCc2ccccc2)cc1)C(=O)Nc1ccccc1OCCCC(=O)O", "Study system": "5α-reductase", "Readout value": 230}
{"Molecule": "CCCC(C)Cc1ccc(/C(C)=C/C(=O)Nc2ccccc2OCCCC(=O)O)cc1 (stereo not shown)", "Study system": "5α-reductase", "Readout value": 340}
{"Molecule": "CCCCSc1ccc(/C(C)=C/C(=O)Nc2ccccc2OCCCC(=O)O)cc1", "Study system": "5α-reductase", "Readout value": 430}
{"Molecule": "C/C(=C\\C(=O)Nc1ccccc1OCCCC(=O)O)c1ccc(Oc2ccccc2)cc1", "Study system": "5α-reductase", "Readout value": 250}
{"Molecule": "CCC(CC)Cc1ccc(/C(C)=C/C(=O)Nc2ccccc2OCCCC(=O)O)cc1", "Study system": "5α-reductase", "Readout value": 300}
{"Molecule": "C/C(=C\\C(=O)Nc1ccccc1OCCCC(=O)O)c1ccc(CC2CCCCC2)cc1", "Study system": "5α-reductase", "Readout value": 280}

Ask: Name the reported IC50 value associated with the molecule C/C(=C\C(=O)Nc1ccccc1OCCCC(=O)O)c1ccc(CC(C)(C)C)cc1
Reply: 370

Ask: Next: C/C(=C\C(=O)Nc1ccccc1OCCCC(=O)O)c1ccc(CCCCc2ccccc2)cc1
Reply: 320

Ask: Next: CCCCCc1ccc(/C(C)=C/C(=O)Nc2ccccc2OCCCC(=O)O)cc1
Reply: 200

* * *

Study system: 5α-reductase
Test name: Inhibitory activity on 5α-reductase in vitro (rat prostate enzyme, [4-C14]-testosterone conversion to dihydrotestosterone)
Condition context: male rat prostate enzyme; [4-C14]-testosterone 1.5 n mol, NADPH; 60 mins at 37° C.; pH 7.4 buffer
Listed here are compounds together with their documented pIC50.
In simple prose, pIC50 is minus the logarithm base ten of a concentration in moles per litre.

Solved entries (count: 3):
{"Compound": "C/C(=C\\C(=O)Nc1ccccc1OCCCC(=O)O)c1ccc(CC2CCC2)cc1 [1 (g)]", "Readout value": 6.96}
{"Compound": "CCCCCOc1ccc(/C(C)=C/C(=O)Nc2ccccc2OCCCC(=O)O)c(F)c1 [1 (e)]", "Readout value": 6.55}
{"Compound": "CCCCCc1cccc(/C(C)=C/C(=O)Nc2ccccc2OCCCC(=O)O)c1 [1 (a)]", "Readout value": 6.80}

Kindly consider the entry below.
Ask: Name the reported pIC50 value associated with the compound CCCCCc1cccc(/C=C(\C)C(=O)Nc2ccccc2OCCCC(=O)O)c1 [1 (k)]
Reply: 6.62

The reported numbers originate from patent US5037852A.
